Values from patent US11008331B2

Exercise: state measured EC50 for each of the compounds provided.
Tested on: HBV surface antigen (HBsAg)
Experiment: HBV in vitro test: HBV surface antigen in HepG2.2.15 culture supernatant by ELISA
Assay type: cell-based, Hepatitis B Virus (HBV)
Details: Hepatitis B virus, HepG2.2.15, read-out: HBsAg experimental results EC50
One number for each entry, in nM.

Some solved cases for reference:
> print(dat)
                                   compound  unit.abbrev  test.result
1  COCCCOc1cc2c(cc1Cl)-c1cc(=O)c(C(=O)O)cn1C(c1cccc(F)c1)O2 (centres unmarked) [Embodiment 20]           nM         22.5
2  COCCCOc1cc2c(cc1Cl)-c1cc(=O)c(C(=O)O)cn1C(c1ccccc1C)O2 (centres unmarked) [Embodiment 21]           nM         16.3
3  COCCOc1cc2c(cc1Cl)-c1cc(=O)c(C(=O)O)cn1C(c1ccccc1)O2 (centres unmarked) [Embodiment 3]           nM         47.6
4  COCCCOc1cc2c(cc1Cl)-c1cc(=O)c(C(=O)O)cn1C(c1csc(Cl)c1Cl)O2 (centres unmarked) [Embodiment 48]           nM          103
5  COCCCOc1cc2c(cc1Cl)-c1cc(=O)c(C(=O)O)cn1C(c1cnsc1)O2 (centres unmarked) [Embodiment 37]           nM         26.6
6  COCCCOc1cc2c(cc1Cl)-c1cc(=O)c(C(=O)O)cn1C(c1cccc(Cl)c1)O2 (centres unmarked) [Embodiment 16]           nM         45.3

Could you report EC50 for every entry in the following list?
1. Cc1csc(C2Oc3cc(OCC4CC4)c(Cl)cc3-c3cc(=O)c(C(=O)O)cn32)n1 (centres unmarked) [Embodiment 42]
2. COCCCOc1cc2c(cc1Cl)-c1cc(=O)c(C(=O)O)cn1C(c1ccc(F)cc1F)O2 (centres unmarked) [Embodiment 33]
3. CS(=O)(=O)CCCOc1cc2c(cc1Cl)-c1cc(=O)c(C(=O)O)cn1C(c1ccccc1)O2 (centres unmarked) [Embodiment 11]
4. O=C(O)c1cn2c(cc1=O)-c1cc(Cl)c(OCCN3CCOCC3)cc1OC2c1ccccc1 (centres unmarked) [Embodiment 5]
5. COCCCOc1cc2c(cc1Cl)-c1cc(=O)c(C(=O)O)cn1C(c1cccc(F)c1F)O2 (centres unmarked) [Embodiment 31]

1. 7.88
2. 10.2
3. 73.9
4. 50
5. 203

---

I'd appreciate it if you could supply pEC50 values for the items below.
Test system: HBV surface antigen (HBsAg)
Test: HBV in vitro test: HBV surface antigen in HepG2.2.15 culture supernatant by ELISA
Format: cell-based, Hepatitis B Virus (HBV)
Settings: Hepatitis B virus, HepG2.2.15, read-out: HBsAg experimental results EC50
Answers are plain numbers, as −log10 of the molar value.

Solved cases below.
> print(dat)
                                   molecule  endpoint.name  test.result
1  O=C(O)c1cn2c(cc1=O)-c1cc(Cl)c(OCCCN3CCCC3=O)cc1OC2c1ccccc1 (centres unmarked)          pEC50         6.67
2  COCCCOc1cc2c(cc1Cl)-c1cc(=O)c(C(=O)O)cn1C(c1cc(F)ccc1F)O2 (centres unmarked)          pEC50         7.15
3  O=C(O)c1cn2c(cc1=O)-c1cc(Cl)c(OCCCO)cc1OC2c1ccccc1 (centres unmarked)          pEC50         7.69

Answer for every listed entry: what is its pEC50? The entries follow.
1. COCCCOc1cc2c(cc1Cl)-c1cc(=O)c(C(=O)O)cn1C(c1ccc(C)cc1)O2 (centres unmarked)
2. COCCCOc1cc2c(cc1Cl)-c1cc(=O)c(C(=O)O)cn1C(c1ncc(C)s1)O2 (centres unmarked)
3. COCCCOc1cc2c(cc1Cl)-c1cc(=O)c(C(=O)O)cn1C(c1ccc(OC)cc1F)O2 (centres unmarked)

1: 6.90; 2: 7.24; 3: 7.53

Could I get pEC50 for every one of these entries?
1. COCCCOc1cc2c(cc1Cl)-c1cc(=O)c(C(=O)O)cn1C(c1cccc(C)c1)O2 (centres unmarked)
2. COCCCOc1cc2c(cc1Cl)-c1cc(=O)c(C(=O)O)cn1C(c1c(F)cccc1F)O2 (centres unmarked)

1. 7.42
2. 7.91

---

Test system: HBV surface antigen (HBsAg)
Assay: HBV in vitro test: HBV surface antigen in HepG2.2.15 culture supernatant by ELISA
Assay type: cell-based, Hepatitis B Virus (HBV)
Conditions: Hepatitis B virus, HepG2.2.15, read-out: HBsAg experimental results EC50
Consider the following molecules; for each one, report its EC50.
Answers are plain numbers, in nM.

Record excerpt, results attached:
> print(dat)
                                   molecule  unit.abbrev  test.result
1  COCCCOc1cc2c(cc1Cl)-c1cc(=O)c(C(=O)O)cn1C(c1cncs1)O2 (stereo not shown)           nM         12.3
2  COCCCOc1cc2c(cc1Cl)-c1cc(=O)c(C(=O)O)cn1C(c1cc(F)ccc1OC)O2 (stereo not shown)           nM         35.9

Provide each entry's EC50 from the list below.
1. COCCCOc1cc2c(cc1Cl)-c1cc(=O)c(C(=O)O)cn1C(c1nccs1)O2 (stereo not shown)
2. COCCCOc1cc2c(cc1Cl)-c1cc(=O)c(C(=O)O)cn1C(c1cc(OC)ccc1F)O2 (stereo not shown)

1. 6.88
2. 101

---

Record form. Attribute: pEC50. Fill in for each entry.
Tested on: HBV surface antigen (HBsAg)
Test: HBV in vitro test: HBV surface antigen in HepG2.2.15 culture supernatant by ELISA
Assay type: cell-based, Hepatitis B Virus (HBV)
Details: Hepatitis B virus, HepG2.2.15, read-out: HBsAg experimental results EC50
One number for each entry, as −log10 of the molar value.

Known results for compounds:
> print(dat)
                                   compound                 assay.system  endpoint.name  test.result
1  COCCCOc1cc2c(cc1Cl)-c1cc(=O)c(C(=O)O)cn1C(c1cc(F)cc(OC)c1)O2 (centres unmarked) [Embodiment 24]  HBV surface antigen (HBsAg)          pEC50         7.45
2  CC(C)(CO)COc1cc2c(cc1Cl)-c1cc(=O)c(C(=O)O)cn1C(c1ccccc1)O2 (centres unmarked) [Embodiment 2]  HBV surface antigen (HBsAg)          pEC50         7.25
3  O=C(O)c1cn2c(cc1=O)-c1cc(Cl)c(OCC3CC3)cc1OC2c1ncc(Cl)s1 (centres unmarked) [Embodiment 44]  HBV surface antigen (HBsAg)          pEC50         6.67
4  C#CCOc1cc2c(cc1Cl)-c1cc(=O)c(C(=O)O)cn1C(c1ccccc1)O2 (centres unmarked) [Embodiment 9]  HBV surface antigen (HBsAg)          pEC50         6.86

Respectfully, I request pEC50 for each entry included below.
1. COCCCOc1cc2c(cc1Cl)-c1cc(=O)c(C(=O)O)cn1C(c1nc(C)c(C)s1)O2 (centres unmarked) [Embodiment 28]
2. O=C(O)c1cn2c(cc1=O)-c1cc(Cl)c(OCCCCCO)cc1OC2c1ccccc1 (centres unmarked) [Embodiment 8]
3. COCCCOc1cc2c(cc1Cl)-c1cc(=O)c(C(=O)O)cn1C(c1ccc(Cl)cc1)O2 (centres unmarked) [Embodiment 17]
4. COCCCOc1cc2c(cc1Cl)-c1cc(=O)c(C(=O)O)cn1C(c1ccc(F)cc1)O2 (centres unmarked) [Embodiment 18]

6.82
7.18
6.59
7.13

---

Test system: HBV surface antigen (HBsAg)
Experiment: HBV in vitro test: HBV surface antigen in HepG2.2.15 culture supernatant by ELISA
Assay type: cell-based, Hepatitis B Virus (HBV)
Settings: Hepatitis B virus, HepG2.2.15, read-out: HBsAg experimental results EC50
Text: The content of HBV DNA in HepG2. 2. 15 cell culture supernatant was detected by a real-time quantitative qPCR assay (real time-qPCR), and the content of HBV surface antigen was detected by enzyme-linked immunosorbent assay (ELISA), the compound EC50 value was used as an index to evaluate the inhibitory effect of the compound on HBV. 3.1. HepG2. 2. […] 3.9. Content determination of hepatitis B virus S antigen measured by ELISA […]
ENDPOINT_NAME: pEC50
Numbers only, as −log10 of the molar value.

> print(dat)
                                   compound  test.result
1  COCCCOc1cc2c(cc1Cl)-c1cc(=O)c(C(=O)O)cn1C(c1cc(F)cc(F)c1)O2 (centres unmarked)         7.55
2  COCCCOc1cc2c(cc1OC)-c1cc(=O)c(C(=O)O)cn1C(c1cscn1)O2 (centres unmarked)         7.81

Hi! Can you tell me pEC50 for each of these compounds?
1. O=C(O)c1cn2c(cc1=O)-c1cc(Cl)c(OCC(F)F)cc1OC2c1ccccc1 (centres unmarked)
2. O=C(O)c1cn2c(cc1=O)-c1cc(Cl)c(OCC(F)(F)CO)cc1OC2c1ccccc1 (centres unmarked)

1: 7.50; 2: 6.99
